Molecular target: Triple Helical Collagen Peptide (GPO)2GFOGER(GPO)3
Sequence (as listed by the source): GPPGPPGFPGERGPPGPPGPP
Assay: Isothermal titration calorimetry, binding to triple helical collagen peptide
Details: L-PGMA in deionized water containing normal saline concentration; 600 μM collagen peptide, 48 μM L-PGMA NPs in cell (concentration of conjugated LWWNSYY); 10 °C; single-site binding model; mean ± S.D., N = 3
property: Kd (µM)
Numbers only, in µM.

Input LWWNSYY [L-PGMA NPs, LWWNSYY-PGMA nanoparticles conjugate; LWWNSYY immobilized to the surface of poly(glycidyl methacrylate) nanoparticles] . Output Kd: 3.45
